The origin of these recorded values is ChEMBL document CHEMBL4513216.

experiment: Toxicity liver stage against HepG2, at 10uM; format: cell-based; set-up: test concentration 10 uM, cell line HepG2-A16-CD81EGFP; conditions: human, HepG2-A16-CD81EGFP cells; read-out: INHIBITION
Entries and their measured cytotoxicity at 10 µM follow.
reportedMetric: cytotoxicity at 10 µM (%)

compound: OCCN1CCCCC1C1OCCO1 (configuration not stated)
recordedNumber: 6.66
//
compound: NC(=O)c1c(-c2ccc(Cl)cc2)csc1NC(=O)CCC(=O)O
recordedNumber: 13.8
//
compound: N#Cc1c(-c2ccccc2)csc1N
recordedNumber: 2.42
//
compound: CC(C)N1CC(C(=O)NCCOc2ccc3c(c2)OCO3)CC1=O (configuration not stated)
recordedNumber: -6.51
//
compound: c1cc(CN2C[C@@H]3OCCN(CC4CC4)[C@@H]3C2)n[nH]1
recordedNumber: -109
//
compound: CCc1cc(N2CCCC(CC)(C(=O)O)C2)nc(N2CCOCC2)n1 (configuration not stated)
recordedNumber: 0.701
//
compound: O=C1NC2(CCN(CCO)CC2)CC1c1ccccc1 (configuration not stated)
recordedNumber: -3.83
//
compound: CC(C)c1nnc2ccc(N3CCCC(C(=O)Nc4nccs4)C3)nn12 (configuration not stated)
recordedNumber: 3.86
//
compound: CCCC(=O)N1CCCC(Cn2cc(-c3ccc(F)cc3)nn2)C1 (configuration not stated)
recordedNumber: 7.88
//
compound: Cc1ccc(S(=O)(=O)NC(=O)c2cccc(OCC(N)=O)c2)s1
recordedNumber: -9.55
//
compound: CN(Cc1cccnc1)Cc1cn2c(n1)CN(C1CCOCC1)CC2
recordedNumber: 8.94
//
compound: CCCN1CCN(C(=O)c2scnc2C)CC1
recordedNumber: -0.73
